# Assay system: human factor Xa (FXa) (Homo sapiens)
# Test name: Measurement of factor Xa inhibition (chromogenic substrate)
# Type: biochemical
# Particulars: factor Xa inhibition
pIC50: −log10 of the molar value.
Test readout: pIC50

Below: 3 compounds and their reported pIC50.
CC(=O)NCc1ccc(N2CC(CNC(=O)c3ccc(Cl)s3)OC2=O)cc1 (centres unmarked) [Example 153]
6.22
O=C(Nc1ccc(N2CC(CNC(=O)c3ccc(Cl)s3)OC2=O)cc1)c1cccs1 (centres unmarked) [Example 156]
5.89
O=C(NCC1CN(c2ccc(S(=O)(=O)N3CCCC3)cc2)C(=O)O1)c1ccc(Cl)s1 (centres unmarked) [Example 167]
6.30

A. O=C(NCC1CN(c2ccccc2)C(=O)O1)c1ccc(Cl)s1 (centres unmarked) [Example 96]
B. O=C(NC[C@H]1CN(c2ccc(N3CC[S+]([O-])CC3)c(F)c2)C(=O)O1)c1ccc(Cl)s1 [Example 14]
C. O=C(NC[C@H]1CN(c2ccc(N3CCCC3)cc2)C(=O)O1)c1ccc(Cl)s1 [Example 18]
D. O=C(NC[C@H]1CN(c2ccc(N3CCS(=O)(=O)CC3)c(F)c2)C(=O)O1)c1ccc(Cl)s1 [Example 15]
E. O=C(NC[C@H]1CN(c2ccc(N3CCC3=O)cc2)C(=O)O1)c1ccc(Cl)s1 [Example 164]
Req: Put the compounds in ascending order of pIC50. Output the labels ranked as instructed.
Resp: A, B, E, D, C
(A: 5.70, B: 5.96, E: 6.42, D: 6.68, C: 7.40)

a. O=C(NC[C@H]1CN(c2ccc(S(=O)(=O)N3CCOCC3)cc2)C(=O)O1)c1ccc(Cl)s1 [Example 38]
b. COCC(=O)Nc1ccc(N2CC(CNC(=O)c3ccc(Cl)s3)OC2=O)cc1 (centres unmarked) [Example 157]
Req: Problem: Given the entries a and b , determine which has the lower reported pIC50. Provide the label of your selected option as the answer.
Resp: a

----------
# Assay system: human factor Xa (FXa) (Homo sapiens, UniProt P00742)
# Sequence (P00742 235-488 limits assumed): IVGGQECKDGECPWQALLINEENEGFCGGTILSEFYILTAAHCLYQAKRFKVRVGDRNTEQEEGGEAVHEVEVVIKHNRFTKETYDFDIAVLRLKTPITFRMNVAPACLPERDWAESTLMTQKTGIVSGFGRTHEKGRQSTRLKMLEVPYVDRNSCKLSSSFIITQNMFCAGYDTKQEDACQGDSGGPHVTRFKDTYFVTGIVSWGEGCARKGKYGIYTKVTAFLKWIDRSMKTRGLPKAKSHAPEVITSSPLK
# Sequence (P00742 41-179 partner limits assumed): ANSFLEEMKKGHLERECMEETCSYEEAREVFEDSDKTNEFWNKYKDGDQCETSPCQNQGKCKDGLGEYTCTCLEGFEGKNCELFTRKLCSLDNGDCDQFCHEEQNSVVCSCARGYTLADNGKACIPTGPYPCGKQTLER
# Test name: Measurement of factor Xa inhibition (chromogenic substrate)
# Format: biochemical
Test readout: IC50 (nM)

O=C(NCC1CN(c2ccc(N3CCCC(O)C3)c(F)c2)C(=O)O1)c1ccc(Cl)s1 (stereo not drawn)
480
O=C(NCC1CN(c2ccc(NCCCO)cc2)C(=O)O1)c1ccc(Cl)s1 (stereo not drawn)
420
O=C(NCC1CN(c2ccc(N3CCC(O)C3)c(F)c2)C(=O)O1)c1ccc(Cl)s1 (stereo not drawn)
62
O=C(NC[C@H]1CN(c2ccc(N3CCCCC3=O)cc2)C(=O)O1)c1ccc(Br)s1
1

P. CC1(N)CCN(c2ccc(N3CC(CNC(=O)c4ccc(Cl)s4)OC3=O)cc2F)CC1 (stereo not drawn)
Q. O=C(NCC1CN(c2ccc(N3CCC3)c(F)c2)C(=O)O1)c1ccc(Cl)s1 (stereo not drawn)
Req: Among P and Q , whose measured IC50 is the smaller figure? In your reply, give the label of the chosen option.
Resp: Q

----------
# Assay system: human factor Xa (FXa) (Homo sapiens)
# Test name: Measurement of factor Xa inhibition (chromogenic substrate)
# Assay type: biochemical
# Particulars: factor Xa inhibition
Test readout: IC50 (µM)

// below: answered molecules
NC(=O)NCc1ccc(N2CC(CNC(=O)c3ccc(Cl)s3)OC2=O)cc1 (stereo not drawn) [Example 154]
1.3
O=C(NCC1CN(c2ccc(N3CCCS3(=O)=O)cc2)C(=O)O1)c1ccc(Cl)s1 (stereo not drawn) [Example 160]
0.14
O=C(NC[C@H]1CN(c2ccc(N3CCCCC3=O)cc2)C(=O)O1)c1ccc(Cl)s1 [Example 162]
0.0028
O=C(NCC1CN(c2ccc(N3CCCC3=O)cc2)C(=O)O1)c1ccc(Br)s1 (stereo not drawn) [Example 43]
0.014
CCN(CC)c1ccc(N2C[C@H](CNC(=O)c3ccc(Cl)s3)OC2=O)cc1 [Example 19]
0.27

I. O=C(NCC1CN(c2ccc(NS(=O)(=O)CCCCl)cc2)C(=O)O1)c1ccc(Cl)s1 (stereo not drawn) [Example 159]
II. CC(=O)N(c1ccc(N2CC(CNC(=O)c3ccc(Cl)s3)OC2=O)cc1)C1CC1 (stereo not drawn) [Example 98]
Req: Consider I and II . Which of these has its IC50 at a higher number? Give the label under which the chosen entry appears.
Resp: I

A. NCC1CN(c2ccc(N3CCCC3=O)cc2)C(=O)O1 (stereo not drawn) [Example 151]
B. O=C(NCC1CN(c2ccc(N3CCCC3=O)cc2)C(=O)O1)c1cccs1 (stereo not drawn) [Example 41]
Req: Pick one: A or B . Which has the bigger IC50 number? Write down the label attached to your selection.
Resp: A
(A: 2 µM, B: 1.3 µM)
